Kindly supply the reported TGI values for the records listed here.
# System: SF-268 CNS
# test_description: NCI tumour cell line growth inhibition, 48 h
Answers are plain numbers, in µM.

Known results for compounds:
CSc1nnc(SC)nn1
29.4
Oc1c(N2CCOCC2)cc(-c2cc(N3CCOCC3)c(O)c3ccccc23)c2ccccc12
17.8

Read the next record carefully.
Request: # TGI lookup, item CC/C=C\C[C@H](O)C/C=C1/C(=O)C=C[C@@H]1C/C=C\CCCC(=O)OC
Response: 11.8

====

# System: TK-10 renal
# test_description: NCI tumour cell line growth inhibition, 48 h
property_name: TGI

CCN(CC)C1CC(O[C@H]2C[C@](O)(C(=O)CO)Cc3c(O)c4c(c(O)c32)C(=O)c2c(OC)cccc2C4=O)OC(C)C1O (stereo partly specified)
2.57 µM

Report TGI for each item below.
1. C[C@@H](c1ccccc1)n1c(N)c(C#N)c2ccc([N+](=O)[O-])cc2c1=O
2. Oc1c(N2CCOCC2)cc(-c2cc(N3CCOCC3)c(O)c3ccccc23)c2ccccc12
3. Cc1sc2nc(-c3cccc([N+](=O)[O-])c3)c(/C=N/N=C(N)N)n2c1C

Response:
1. 24 µM
2. 28.9 µM
3. 2.84 µM

====

# Test system: SN12C renal
# test_description: NCI tumour cell line growth inhibition, 48 h
Use 10 µM as the dividing line for TGI, with the line itself on the Criterion met side and lower values as Criterion not met.

Example results:
C[C@@H](c1ccccc1)n1c(N)c(C#N)c2ccc([N+](=O)[O-])cc2c1=O
Criterion met
Clc1ccc(C[P+](c2ccccc2)(c2ccccc2)c2ccccc2)c(Cl)c1
Criterion met
CC(=O)[C@@H](C)C(=O)N1C(=O)OC[C@@]12[C@@H]1CC[C@@H](C1)C2(C)C
Criterion met
Nc1ccccc1C#C/C=C\C#Cc1ccccc1N
Criterion met
CCOC(=O)CCC(=O)C1c2cccc(O)c2C(=O)c2c(O)cc(C)cc21 (stereo not given)
Criterion not met

Request: Dear colleague, could you confirm whether COc1cccc2c1C(=O)c1c(O)c3c(c(O)c1C2=O)CC(O)(C(=O)CO)CC3OC1CC(N2CCOCC2C#N)C(O)C(C)O1 (stereo not given) has TGI at or above 10 µM?
Response: Criterion not met

Request: Please indicate if the recorded TGI for COc1cc(-c2nc3ccccn3c2/N=C/c2cc(Br)cc(Br)c2O)ccc1O meets or exceeds 10 µM.
Response: Criterion met

Request: Item CN(C)CCCN=c1c2ccccc2n(O)c2ccccc12 with TGI of 10 µM or above?
Response: Criterion met

Request: Could you please find out whether COc1cc2c3c(n(CCCN)c(=O)c2cc1OC)-c1ccc(C#N)cc1C3=O has TGI that meets 10 µM or exceeds it?
Response: Criterion met

Request: Hello, I need to know if Cc1cc(N(CCC#N)CCC#N)ccc1/C=C(\NC(=O)/C=C/c1ccccc1)C(N)=O has measured TGI not below 10 µM. Thanks!
Response: Criterion met

====

# System: SK-MEL-5 melanoma
# test_description: NCI tumour cell line growth inhibition, 48 h
property_name: GI50

Here are 4 compounds. What values of GI50 were reported for them?
1. CCOC(=O)C1CCN(S(=O)(=O)/N=C2/NC(=O)NC2=C(Cl)Cl)CC1
2. COc1cc2c3c(n(CCCN)c(=O)c2cc1OC)-c1ccc(C#N)cc1C3=O
3. CCNCCNc1cc(-c2ccc(C(F)(F)F)cc2)c(C#N)c2nc3ccccc3n12
4. COc1cc(OC)c(C(=O)/C=C/c2cccc(C(F)(F)F)c2)c(OC)c1

Response:
1. 1.98 µM
2. 16.4 µM
3. 1.67 µM
4. 1.07 µM
